systemUnderTest: Recombinant human neprilysin (rhNEP; R&D Systems) (human, UniProt P08473 52-750)
Sequence (P08473 52-750 limits assumed): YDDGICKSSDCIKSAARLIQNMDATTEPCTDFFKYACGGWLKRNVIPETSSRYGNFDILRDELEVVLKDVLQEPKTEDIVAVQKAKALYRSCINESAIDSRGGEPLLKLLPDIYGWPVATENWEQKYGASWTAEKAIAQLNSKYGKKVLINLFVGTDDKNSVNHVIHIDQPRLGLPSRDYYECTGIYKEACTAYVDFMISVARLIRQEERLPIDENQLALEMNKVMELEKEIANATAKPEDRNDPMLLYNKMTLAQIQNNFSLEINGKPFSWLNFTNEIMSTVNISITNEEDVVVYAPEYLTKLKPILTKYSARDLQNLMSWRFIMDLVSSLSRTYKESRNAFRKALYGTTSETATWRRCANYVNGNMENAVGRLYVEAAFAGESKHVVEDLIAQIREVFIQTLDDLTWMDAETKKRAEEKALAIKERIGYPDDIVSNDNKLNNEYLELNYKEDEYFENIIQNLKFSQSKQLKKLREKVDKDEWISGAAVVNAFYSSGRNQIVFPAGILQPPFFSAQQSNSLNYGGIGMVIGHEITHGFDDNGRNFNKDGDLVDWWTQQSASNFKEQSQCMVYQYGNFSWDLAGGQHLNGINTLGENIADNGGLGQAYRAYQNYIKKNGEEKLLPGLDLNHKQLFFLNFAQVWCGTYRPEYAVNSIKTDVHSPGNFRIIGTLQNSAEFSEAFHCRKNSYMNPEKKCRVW
protocolDetails: cell-based or functional assay
Starred links: 1 amine or outer side, 2 acyl side, 3 side chain; linkers in the order of their positions; H or OH if unused. Positions of bridges follow the written chain, without caps; N, C: chain ends. No end group written: not given here. γGlu = O=C(O)[C@H](CCC(=O)[*:2])N[*:1]; C18d = not defined here; AEEA = NCCOCCOCC(=O)O
measurementType: Remaining of parent after 90 min (%)
Answer in %, number only, no unit symbol.

binder	readoutUnits	Remaining of parent after 90 min (%)
{C18d-γGlu-γGlu-γGlu-AEEA-AEEA-AEEA-AEEA}-YKGAQKKGLSQGCFGLPLDRIGSLSGLGC (disulfide 13-29 (inferred); reading uncertain; also: printed as [N-terminal(C18d-3xgGlu-4xOEG), des1-8, 13Q, 19Q, 25P, 32L]-hCNP37) [Compound ID 9480, [N-terminal(C18d-3xgGlu-4xOEG), des1-8, 13Q, 19Q, 25P, 32L]-hCNP37]	%	98.3

## Task Can you look up the measured Remaining of parent after 90 min (%) of {C18d-γGlu-AEEA-AEEA}-GQAPGAQKKGSSQGCFGLPLDRIGSLSGLGC (disulfide 15-31 (inferred); reading uncertain; also: printed as [N-terminal(C18d-gGlu-2xOEG-GQAP), des1-10, 13Q, 17S, 19Q, 25P, 32L]-hCNP37) [Compound ID 9384, [N-terminal(C18d-gGlu-2xOEG-GQAP), des1-10, 13Q, 17S, 19Q, 25P, 32L]-hCNP37] for me?
## Result 87.8
